Origin of the recorded values: patent EP1144412B1

Tested on: Highly purified T cells
ASSAY DETAILS: T cell proliferation induced by anti-CD28 mAb + PMA (BrdU incorporation)
Type: cell-based, Human
CONDITIONS USED: Homo sapiens, T-cell; Table II; read-out: IC50 in µM of pteridine derivative aCD28

- MOLECULAR STRING: "CCN(CC)c1nc(N)nc2ncc(-c3ccc(Cl)cc3)nc12"
  SYSTEM: "Highly purified T cells"
  UNITS: "µM"
  IC50: 20
- MOLECULAR STRING: "Nc1nc(N2CCOCC2)c2nc(-c3ccc(Cl)cc3)cnc2n1"
  SYSTEM: "Highly purified T cells"
  UNITS: "µM"
  IC50: 20
- MOLECULAR STRING: "Nc1nc(N)c2nc(-c3ccc(Cl)cc3)cnc2n1"
  SYSTEM: "Highly purified T cells"
  UNITS: "µM"
  IC50: 110
- MOLECULAR STRING: "CN(C)Cc1cnc2nc(N)nc(N)c2n1"
  SYSTEM: "Highly purified T cells"
  UNITS: "µM"
  IC50: 100
- MOLECULAR STRING: "CCN(CC)c1nc(N)nc2ncc(-c3ccc(OC)c(OC)c3)nc12"
  SYSTEM: "Highly purified T cells"
  UNITS: "µM"
  IC50: 0.1
- MOLECULAR STRING: "CN1CCN(c2nc(N)nc3ncc(-c4ccc(Cl)cc4)nc23)CC1"
  SYSTEM: "Highly purified T cells"
  UNITS: "µM"
  IC50: 4.2

====

Test system: Highly purified T cells
ASSAY DETAILS: T cell proliferation induced by anti-CD28 mAb + PMA (BrdU incorporation)
Format: cell-based, Human
CONDITIONS USED: Homo sapiens, T-cell; Table II; read-out: IC50 in µM of pteridine derivative aCD28
The entries below are paired with their reported log10 of IC50.
QUANTITY KIND: log10 of IC50 (log10 of the value in µM)

- MOLECULAR STRING: "Nc1nc(N(Cc2ccccc2)Cc2ccccc2)c2nc(-c3ccccc3)cnc2n1"
  QUANTITY KIND: "log10 of IC50"
  RESULT: 1.40
- MOLECULAR STRING: "COc1ccc(-c2cnc3nc(N)nc(N4CCN(C)CC4)c3n2)cc1"
  QUANTITY KIND: "log10 of IC50"
  RESULT: 0.62
- MOLECULAR STRING: "Cc1ccc(-c2cnc3nc(N)nc(N)c3n2)cc1"
  QUANTITY KIND: "log10 of IC50"
  RESULT: 1.40
- MOLECULAR STRING: "COc1ccc(-c2cnc3nc(NCCO)nc(N)c3n2)cc1"
  QUANTITY KIND: "log10 of IC50"
  RESULT: 2.20
- MOLECULAR STRING: "Nc1nc(N2CCNCC2)c2nc(-c3ccc(Cl)cc3)cnc2n1"
  QUANTITY KIND: "log10 of IC50"
  RESULT: 1.18
- MOLECULAR STRING: "Cc1ccc(-c2cnc3nc(N)nc(N(C)C)c3n2)cc1"
  QUANTITY KIND: "log10 of IC50"
  RESULT: 0.59
- MOLECULAR STRING: "Cc1ccc(-c2cnc3nc(NCCO)nc(N)c3n2)cc1"
  QUANTITY KIND: "log10 of IC50"
  RESULT: 2.20
- MOLECULAR STRING: "CCN(CC)c1nc(N)nc2ncc(-c3ccc(OC)cc3)nc12"
  QUANTITY KIND: "log10 of IC50"
  RESULT: 1.30
- MOLECULAR STRING: "Nc1nc(N(Cc2ccccc2)Cc2ccccc2)c2nc(-c3ccc(Cl)cc3)cnc2n1"
  QUANTITY KIND: "log10 of IC50"
  RESULT: 1.30
- MOLECULAR STRING: "CN(C)c1nc(N)nc2ncc(-c3ccccc3)nc12"
  QUANTITY KIND: "log10 of IC50"
  RESULT: 1.18

====

Tested on: Highly purified T cells
ASSAY DETAILS: T cell proliferation induced by anti-CD3 mAb + PMA (BrdU incorporation)
Format: cell-based, Human
CONDITIONS USED: Homo sapiens, T-cell; untitled structure table; no unit printed there, same values in Table II as IC50 in µM; read-out: aCD3
The entries below are paired with their reported log10(IC50).
QUANTITY KIND: log10(IC50) (log10 of the value in µM)

- MOLECULE: "COc1ccc(-c2cnc3nc(N)nc(N4CCN(C)CC4)c3n2)cc1OC"
  RESULT: 0.86
- MOLECULE: "Cc1ccc(-c2cnc3nc(N)nc(N)c3n2)cc1"
  RESULT: 2.04
- MOLECULE: "COc1ccc(-c2cnc3nc(N)nc(N(C)C)c3n2)cc1"
  RESULT: 0.88
- MOLECULE: "COc1ccc(-c2cnc3nc(N)nc(N4CCNCC4)c3n2)cc1"
  RESULT: 1.15
- MOLECULE: "Nc1nc(N2CCCCC2)c2nc(-c3ccccc3)cnc2n1"
  RESULT: 1.90
- MOLECULE: "Nc1nc(N2CCNCC2)c2nc(-c3ccc(Cl)cc3)cnc2n1"
  RESULT: 1.30
- MOLECULE: "CCCCCOc1nc(N)nc2ncc(C(Br)C(Br)c3ccccc3)nc12 (stereo not shown)"
  RESULT: 0.60
- MOLECULE: "Cc1ccc(-c2cnc3nc(NCCO)nc(N)c3n2)cc1"
  RESULT: 2.30
- MOLECULE: "Nc1nc(N2CCCCC2)c2nc(-c3ccc(Cl)cc3)cnc2n1"
  RESULT: 1.85
- MOLECULE: "COc1ccc(-c2cnc3nc(N)nc(N4CCNCC4)c3n2)cc1OC"
  RESULT: 1.17
- MOLECULE: "CCN(CC)c1nc(N)nc2ncc(-c3ccc(Cl)cc3)nc12"
  RESULT: 1.70
- MOLECULE: "CCCCCOc1nc(N)nc2ncc(C=Cc3ccccc3)nc12"
  RESULT: 2.04
- MOLECULE: "COc1ccc(-c2cnc3nc(N)nc(N4CCN(C)CC4)c3n2)cc1"
  RESULT: 1.07
- MOLECULE: "CCN(CC)c1nc(N)nc2ncc(-c3ccc(OC)c(OC)c3)nc12"
  RESULT: -0.30
- MOLECULE: "CCN(CC)c1nc(N)nc2ncc(-c3ccccc3)nc12"
  RESULT: 1.90
- MOLECULE: "CN1CCN(c2nc(N)nc3ncc(-c4ccc(Cl)cc4)nc23)CC1"
  RESULT: 1.04
- MOLECULE: "Nc1nc(N)c2nc(-c3ccc(Cl)cc3)cnc2n1"
  RESULT: 2.04
- MOLECULE: "Nc1nc(N(Cc2ccccc2)Cc2ccccc2)c2nc(-c3ccc(Cl)cc3)cnc2n1"
  RESULT: 1.88
- MOLECULE: "CN(C)c1nc(N)nc2ncc(-c3ccccc3)nc12"
  RESULT: 1.18
- MOLECULE: "CCCN(CCC)c1nc(N)nc2ncc(-c3ccc(OC)c(OC)c3)nc12"
  RESULT: -0.10
- MOLECULE: "COCCOCc1cnc2nc(N)nc(N)c2n1"
  RESULT: 2.26
- MOLECULE: "COc1ccc(-c2cnc3nc(N)nc(N4CCOCC4)c3n2)cc1OC"
  RESULT: -0.40
- MOLECULE: "Nc1nc(N2CCOCC2)c2nc(-c3ccccc3)cnc2n1"
  RESULT: 2.00
- MOLECULE: "CCN(CC)c1nc(N)nc2ncc(-c3ccc(OC)cc3)nc12"
  RESULT: 1.30
- MOLECULE: "COc1ccc(-c2cnc3nc(N)nc(N(Cc4ccccc4)Cc4ccccc4)c3n2)cc1OC"
  RESULT: 0.63

====

Tested on: Peripheral blood mononuclear cells (PBMC)
ASSAY DETAILS: Mixed lymphocyte reaction (MLR), [3H]-thymidine incorporation
Type: cell-based
CONDITIONS USED: Homo sapiens, untitled structure table, no unit printed there, same values in Table II as IC50 in µM, read-out: MLR
The entries below are paired with their reported IC50.

- COMPOUND: "COc1nc(N)nc2ncc(C(O)C(C)O)nc12 (stereo not drawn)"
  IC50: "> 200 µM"
- COMPOUND: "Nc1nc(N)c2nc(-c3ccccc3)cnc2n1"
  IC50: "> 200 µM"
- COMPOUND: "CN(C)Cc1cnc2nc(N)nc(N)c2n1"
  IC50: "> 200 µM"

====

System: Peripheral blood mononuclear cells (PBMC)
ASSAY DETAILS: Mixed lymphocyte reaction (MLR), [3H]-thymidine incorporation
Assay type: cell-based
CONDITIONS USED: Homo sapiens, Table II, read-out: IC50 in µM of pteridine derivative MLR
The entries below are paired with their reported IC50.

- MOLECULAR STRING: "Nc1nc(N)c2nc(-c3ccccc3)cnc2n1"
  IC50: "> 200 µM"
- MOLECULAR STRING: "Cc1ccc(-c2cnc3nc(NCCO)nc(N)c3n2)cc1"
  IC50: "> 200 µM"
- MOLECULAR STRING: "Cc1nc2nc(N)nc(N)c2nc1-c1ccccc1"
  IC50: "> 200 µM"
- MOLECULAR STRING: "Cc1ccc(-c2cnc3nc(N)nc(N)c3n2)cc1"
  IC50: "> 200 µM"
